Measured % Inhibition, listed per entry for reference.
# Test system: Brugia malayi
# Procedure summary: WHO-TDR: Lymphatic Filariasis
# Type: functional
# Parameters: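 tested at 10 µM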
Observable: % Inhibition (%)

Molecule	Observable	Result units	Value reported
O=S(=O)(CCCOc1ccc(F)cc1)N1CCc2ccccc21	% Inhibition	%	0
CCOC(=O)Cn1/c(=N\C(=O)CCCS(=O)(=O)Cc2ccccc2)sc2cc(F)ccc21	% Inhibition	%	0
O=C(CC1CCCC1)N1CCN(c2ccc(-c3ccccn3)nn2)CC1	% Inhibition	%	33.33
CC(C)N1CCc2c(sc(NC(=O)COc3ccc(Cl)cc3Cl)c2C(N)=O)C1	% Inhibition	%	33.33
O=C(c1ccc(Br)o1)C1C(=O)N(c2ccccc2)N=C1c1ccccc1 (stereo unspecified)	% Inhibition	%	0
COc1ccc2nc(N(CCCN(C)C)C(=O)CCCSc3ccccc3)sc2c1	% Inhibition	%	0
CS(=O)(=O)N1CCCCC1C(=O)Nc1nc(-c2nc3ccccc3s2)cs1 (stereo unspecified)	% Inhibition	%	0
C/C=C/Cn1c(=O)c2c(nc3n(C(C)c4ccccc4)c(C)cn23)n(C)c1=O (stereo unspecified)	% Inhibition	%	20
CCn1ccc(C(=O)Nc2nc(-c3cc(Cl)ccc3Cl)cs2)n1	% Inhibition	%	100
COc1ccc(OC)c(Nc2nc(CC(=O)NCc3ccccc3Cl)cs2)c1	% Inhibition	%	20
CN(Cc1ccco1)S(=O)(=O)c1ccc(C(=O)Nc2nnc(-c3cccs3)o2)cc1	% Inhibition	%	0
Cc1ccnc(Nc2ccc(NCCNC(=O)c3ccc(F)cc3Cl)nn2)c1	% Inhibition	%	25
O=C(Nc1ccc2c(c1)N(C(=O)C1CCCO1)CC2)c1ccco1 (stereo unspecified)	% Inhibition	%	0
O=C(Nc1ccc2c(c1)N(C(=O)c1cccs1)CC2)c1cc2ccccc2oc1=O	% Inhibition	%	0
COc1ccc(-c2cn3c(C(=O)Nc4ccc(F)cc4F)csc3n2)cc1	% Inhibition	%	0
O=C(c1ccco1)N(CCCn1ccnc1)c1nc2c(F)cc(F)cc2s1	% Inhibition	%	0

###

Measured IC50, listed per entry for reference.
# Tested on: Plasmodium falciparum K1
# Procedure summary: WHO-TDR: Malaria
# Assay type: functional, organism-based, Homo sapiens
# Settings: Erythrocyte
Observable: IC50

Molecular string	System tested	Observable	Value reported
O=C(C1CCN(S(=O)(=O)c2cccs2)CC1)N(Cc1cccnc1)c1nc2c(F)cc(F)cc2s1	Plasmodium falciparum K1	IC50	> 16 µg/mL
Cc1c(Cl)ccc2sc(NC(=O)c3ccc(N(C)C)cc3)nc12	Plasmodium falciparum K1	IC50	> 10.4 µg/mL
O=C(Cc1csc(Nc2cccc(Cl)c2)n1)NCc1ccccn1	Plasmodium falciparum K1	IC50	> 10.8 µg/mL
COc1ccccc1OCC(=O)Nc1nc(CSCc2ccc(F)cc2)cs1	Plasmodium falciparum K1	IC50	> 12.6 µg/mL

###

# Procedure summary: WHO-TDR: Cytotoxicity
# Assay type: toxicity, cell-based
# Settings: human, MRC5 cells
Measured IC50, listed per entry for reference.

Compound	IC50
CCCOc1nn(CCC)cc1C(=O)N1CCN(c2ccccc2Cl)CC1	> 11.7 µg/mL
CSc1nc(NC(C)C)c2cnn(CCNC(=O)COc3ccc(Cl)cc3)c2n1	> 13 µg/mL
CN1CCCc2cc(C(CNC(=O)c3cccs3)N3CCCCC3)ccc21 (configuration not stated)	> 11.5 µg/mL
CCn1ccc(C(=O)Nc2ccc(C)cc2C(=O)c2ccccc2)n1	> 10 µg/mL
Cc1cc2cc(CNC(=O)c3ccccc3Br)ccc2n1C	> 10.7 µg/mL
CSc1ccc2nc(N(Cc3cccnc3)C(=O)c3ccc(C(=O)c4ccccc4)cc3)sc2c1	> 14.9 µg/mL
Cc1ccc(-c2nc(CSc3nc(O)cc(C(F)(F)F)n3)c(C)o2)cc1	> 11.4 µg/mL
CC1Cc2ccccc2N1C(=O)Cc1csc(NC(=O)c2ccc[nH]c2=O)n1 (configuration not stated)	> 11.8 µg/mL
C=CCN(CC=C)S(=O)(=O)c1ccc(C(=O)Nc2nc3ccc(C(C)C)cc3s2)cc1	> 11 µg/mL
O=C(Cc1csc(NS(=O)(=O)c2ccc(Cl)cc2)n1)Nc1ccc(F)c(F)c1	> 13.3 µg/mL
C=CCN1C(=O)C(C)(C)COc2cc(NS(=O)(=O)c3ccccc3Cl)ccc21	> 12.6 µg/mL
CCCc1cc(=O)n(CC(=O)Nc2ccc(C)cc2)c(-n2nc(C)cc2C)n1	10.5 µg/mL
O=C(NCCC1=CCCCC1)c1n[nH]c2ccccc12	> 8.08 µg/mL
COc1cccc(C(=O)Nc2nnc(SCc3ccc(Br)cc3)s2)c1	> 13.1 µg/mL
O=S(=O)(CCCOc1ccc(F)cc1)NCCCc1ccccc1	10.5 µg/mL
CCSc1nnc(-c2ccccc2)c2sc(C)nc12	4.9 µg/mL
O=C(c1ccco1)N(CCCn1ccnc1)c1nc2c(F)cc(F)cc2s1	7.77 µg/mL

Hey, just so you know, these numbers are from ChEMBL document CHEMBL2093137.
